Assay: Kinetic turbidimetric aqueous solubility
Conditions: PBS buffer, kinetic from dmso stock
Each record here notes measured solubility kinetic at 5 min.

Lab note: measured solubility kinetic at 5 min of FC(F)(F)c1cc(NCc2ccc(Br)cc2)ccn1 [Compound 4] was > 200 µM

---

Assay: Kinetic turbidimetric aqueous solubility
Details: PBS buffer, kinetic from dmso stock
Hi, to clarify the labels: 1 covers solubility kinetic at 5 min from 40 µM upward, 0 covers anything below 40 µM.

{"columns": ["record-smiles", "answer-label"],
 "data": [
  ["FC(F)(F)c1cc(NCc2ccccc2Br)ccn1", 1],
  ["Fc1ccc(CNc2ccnc(C(F)(F)F)c2)cc1", 1],
  ["COc1ccc(-c2ccc(CNc3ccnc(C(F)(F)F)c3)nc2)cn1", 1],
  ["CC(C)Oc1ncc(-c2ncc(CNc3ccnc(C(F)(F)F)c3)cn2)cc1Cl", 0],
  ["FC(F)(F)c1cc(NCc2ccc(-c3ccc(Cl)cc3)cn2)ccn1", 0]
]}

Evaluate "FC(F)(F)c1cc(NCc2cccc(Br)c2)ccn1" : solubility kinetic at 5 min at minimum 40 µM? 1

Evaluate "FC(F)(F)c1cc(NCc2ccc(-c3ccc(Cl)cn3)cn2)ccn1" : solubility kinetic at 5 min at minimum 40 µM? 1

Evaluate "FC(F)(F)c1cc(NCc2ccc(-c3ccc(Cl)nc3)cn2)ccn1" : solubility kinetic at 5 min at minimum 40 µM? 1

Evaluate "FC(F)(F)c1cc(NCc2ccc(-c3cnc(Cl)c(C(F)(F)F)c3)cn2)ccn1" : solubility kinetic at 5 min at minimum 40 µM? 1

Evaluate "Cc1cc(-c2ccc(CNc3ccnc(C(F)(F)F)c3)nc2)cnc1Cl" : solubility kinetic at 5 min at minimum 40 µM? 1
